Test: General toxicology in ICR mice
Conditions: mouse, in vivo, po; ICR mice (male), orally
measured.attribute: LD50 (mg/kg)
Enter your answer as a number in mg/kg; do not include the unit.

# LD50 lookup, item CC(O)c1cc2c(o1)C(=O)c1cccc(O)c1C2=O (stereo not shown)
8.4

meta.source: patent US5663197A
